- target-under-test: hM4 receptors (Homo sapiens, UniProt P08173)
- procedure-details: Human M4 PAM pERK assay
- protocol-conditions: PAM mode
Parameter: EC50. Scope: all listed entries.

## Task I'd like to know its EC50. The compound in question is Cc1c2c(n(C)c(=O)c1C(F)(F)F)CN(C(=O)c1cnn(C)c1)C2
## Result 100 to 500 nM

## Task Quick one: EC50 for Cc1c2c(n(C)c(=O)c1Cl)CN(C(=O)c1ccc3cncn3c1)C2 ?
## Result < 100 nM

* * *

- target-under-test: human M4 receptor (Homo sapiens, UniProt P08173)
- Sequence (P08173 whole entry): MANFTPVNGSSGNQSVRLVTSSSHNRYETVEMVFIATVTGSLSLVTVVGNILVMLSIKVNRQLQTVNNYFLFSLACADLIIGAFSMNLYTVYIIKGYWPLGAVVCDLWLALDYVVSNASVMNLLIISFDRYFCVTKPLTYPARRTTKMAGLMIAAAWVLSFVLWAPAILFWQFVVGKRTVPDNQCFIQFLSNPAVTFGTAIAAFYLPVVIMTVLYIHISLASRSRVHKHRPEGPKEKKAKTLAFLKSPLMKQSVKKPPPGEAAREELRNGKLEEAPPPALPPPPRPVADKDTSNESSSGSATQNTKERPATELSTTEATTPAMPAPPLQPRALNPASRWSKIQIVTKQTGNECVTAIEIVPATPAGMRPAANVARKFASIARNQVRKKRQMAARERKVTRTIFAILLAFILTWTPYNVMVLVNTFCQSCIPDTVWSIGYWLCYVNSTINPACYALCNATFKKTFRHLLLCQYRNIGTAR
- procedure-details: M4 GTPγS PAM assay
- protocol-conditions: CHO-K1 membranes expressing human M4, with EC20 acetylcholine (40 nM)
Listed here are compounds together with their documented EC50.

* COc1c2c(n(C)c(=O)c1C)CN(C(=O)c1cnn(C(F)(F)F)c1)C2C (single isomer, unassigned) [Compound I-83] | 0.1 to 0.5 µM
* COC(C)(C)Cn1cc(C(=O)N2Cc3c(C)c(Cl)c(=O)n(C)c3C2)cn1 [Compound I-62] | 0.5 to 2 µM
* COc1c2c(n(C)c(=O)c1Cl)CN(C(=O)c1cnn(C(F)(F)F)c1)C2C (single isomer, unassigned) [Compound I-75] | > 2 µM
* Cc1c2c(n(C)c(=O)c1Cl)CN(C(=O)c1cn(C(C)C)cn1)C2 [Compound I-14] | > 2 µM

## Task Data request, read-out EC50, for Cc1cc(=O)n(C)c2c1C(C)N(C(=O)c1ccc3nc(C4CC4)sc3c1)C2 (single isomer, unassigned) [Compound I-99]
## Result 0.5 to 2 µM

## Task What measured EC50 goes with Cc1ncc(C(=O)N2Cc3c(C)c(Cl)c(=O)n(C)c3C2)s1 [Compound I-9] ?
## Result 0.5 to 2 µM

## Task Sample Cc1c2c(n(C)c(=O)c1Cl)CN(C(=O)c1cc3n(n1)CCCC3)C2 [Compound I-32] — what was its EC50?
## Result 0.5 to 2 µM

## Task For the compound Cc1c2c(n(C)c(=O)c1Cl)CN(C(=O)c1cnc(C(F)F)s1)C2 [Compound I-36] , what EC50 is on record?
## Result 0.5 to 2 µM

## Task Report EC50 for COc1cc(=O)n(C)c2c1C(C)N(C(=O)c1cnn(C(F)(F)F)c1)C2 (single isomer, unassigned) [Compound I-80] please.
## Result > 2 µM

## Task What value of measured EC50 is listed for Cc1c2c(n(C)c(=O)c1F)CN(C(=O)c1cnn(C(F)(F)F)c1)C2 [Compound I-113] ?
## Result 0.5 to 2 µM

## Task Quick check: EC50 of Cc1c2c(n(C)c(=O)c1Cl)CN(C(=O)c1cnn(C(F)(F)F)c1)C2 [Compound I-1] ?
## Result 0.1 to 0.5 µM

## Task Any idea what its EC50 is? The compound is COc1c2c(n(C)c(=O)c1C)CN(C(=O)c1cnn(C(F)(F)F)c1)C2 [Compound I-87]
## Result 0.1 to 0.5 µM

## Task What value of EC50 has been recorded for this entry: Cc1cc(=O)n(C)c2c1C(C)N(C(=O)c1cnc(C(F)(F)F)s1)C2 (single isomer, unassigned) [Compound I-95]
## Result 0.5 to 2 µM

## Task Could you tell me which EC50 is on file for Cc1cc(=O)n(C)c2c1C(C)N(C(=O)c1ccc3nc(C4CC4)sc3c1)C2 (single isomer, unassigned) [Compound I-98] ?
## Result > 2 µM

## Task Looking for the measured EC50 of Cc1c2c(n(C)c(=O)c1Cl)C(C)N(C(=O)c1cnn(C(F)(F)F)c1)C2 (single isomer, unassigned) [Compound I-108] , can you help?
## Result > 2 µM

## Task // lookup EC50 for Cc1cc(=O)n(C)c2c1C(C)N(C(=O)c1cnn(C(F)(F)F)c1)C2 (single isomer, unassigned) [Compound I-92]
## Result > 2 µM

## Task Report EC50 for Cc1c2c(n(C)c(=O)c1Cl)CN(C(=O)c1ccn(C)n1)C2 [Compound I-3] please.
## Result > 2 µM

## Task // returns reported EC50 for input COc1cc(=O)n(C)c2c1C(C)N(C(=O)c1cnn(C(F)(F)F)c1)C2 (single isomer, unassigned) [Compound I-81]
## Result > 2 µM

## Task Param item = Cc1c2c(n(C)c(=O)c1Cl)CN(C(=O)c1cn(CC(C)C)cn1)C2 [Compound I-19] ; retrieve measured EC50.
## Result > 2 µM

## Task Looking for the measured EC50 of Cc1c2c(n(C)c(=O)c1Cl)CN(C(=O)c1ccc3nc(C4CC4)sc3c1)C2 [Compound I-52] , can you help?
## Result 0.5 to 2 µM

## Task Which measured EC50 value corresponds to Cc1c2c(n(C)c(=O)c1Cl)CN(C(=O)c1cnc(CC3CC3(F)F)s1)C2 (stereo not drawn) [Compound I-66] ?
## Result 0.5 to 2 µM

## Task Request the reported EC50 associated with Cc1cc(=O)n(C)c2c1C(C)N(C(=O)c1cnc(C3CC3)s1)C2 (single isomer, unassigned) [Compound I-96]
## Result > 2 µM

## Task I have this compound here, Cc1cc(=O)n(C)c2c1C(C)N(C(=O)c1cnc(C3CC3)s1)C2 (single isomer, unassigned) [Compound I-97] , and I need its recorded EC50.
## Result > 2 µM

## Task Need EC50, item Cc1c2c(n(C)c(=O)c1Cl)CN(C(=O)c1cnc(C(F)(F)F)s1)C2 [Compound I-29]
## Result 0.5 to 2 µM

## Task Using the record for Cc1c2c(n(C)c(=O)c1Cl)CN(C(=O)c1ccc(C(F)(F)F)nc1)C2 [Compound I-44] , report its EC50.
## Result < 0.1 µM

## Task # input compound: Cc1c2c(n(C)c(=O)c1Cl)CN(C(=O)c1ccc(C(F)(F)F)cn1)C2 [Compound I-45] ; wanted: its EC50
## Result > 2 µM
